Reported solubility in G1/S (log2) is given for each of the following sequences.
# Test system: HeLa Kyoto;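 also: HeLa Kyoto cells arrested at G1/S by double thymidine block, proteins quantified by TMT10plex mass spectrometry in mild NP-40 versus SDS extracts, three biological replicates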
# Assay remarks: solubility in G1/S (NP-40 vs SDS abundance) (log2 ratio); higher = more soluble
# Measurement parameters: cell cycle stage: G1/S
Answer with a bare number; do not write a unit.

[[record]]
seq = "MSLLLLLLLVSYYVGTLGTHTEIKRVAEEKVTLPCHHQLGLPEKDTLDIEWLLTDNEGNQKVVITYSSRHVYNNLTEEQKGRVAFASNFLAGDASLQIEPLKPSDEGRYTCKVKNSGRYVWSHVILKVLVRPSKPKCELEGELTEGSDLTLQCESSSGTEPIVYYWQRIREKEGEDERLPPKSRIDYNHPGRVLLQNLTMSYSGLYQCTAGNEAGKESCVVRVTVQYVQSIGMVAGAVTGIVAGALLIFLLVWLLIRRKDKERYEEEERPNEIREDAEAPKARLVKPSSSSSGSRSSRSGSSSTRSTANSASRSQRTLSTDAAPQPGLATQAYSLVGPEVRGSEPKKVHHANLTKAETTPSMIPSQSRAFQTV [CLMP]"
value_kind = "solubility in G1/S (log2)"
experimental_value = 0.0444


// query Any idea what its solubility in G1/S (log2) is? The sequence is MPLLTQQIQDEDDQYSLVASLDNVRNLSTILKAIHFREHATCFATKNGIKVTVENAKCVQANAFIQAGIFQEFKVQEESVTFRINLTVLLDCLSIFGSSPMPGTLTALRMCYQGYGYPLMLFLEEGGVVTVCKINTQEPEETLDFDFCSTNVINKIILQSEGLREAFSELDMTSEVLQITMSPDKPYFRLSTFGNAGSSHLDYPKDSDLMEAFHCNQTQVNRYKISLLKPSTKALVLSCKVSIRTDNRGFLSLQYMIRNEDGQICFVEYYCCPDEEVPESES [RAD1]
// result -0.0871
